Entry source: ChEMBL document CHEMBL5247586

Assay: MRT (0 to t) in Sprague-Dawley rat administered intragastrically
Format: ADME
Details: in vivo, po, route ig
property: MRT last (min)
Numbers only, in min.

Record C=CCONC(=O)CCSSCCC(=O)O[C@@H]1CC[C@@]2(C)[C@@H](CC[C@@]3(C)[C@H]2[C@H](O)C[C@H]2/C(=C(\CCC=C(C)C)C(=O)OCc4ccccc4)[C@@H](OC(C)=O)C[C@@]23C)[C@@H]1C , field MRT last: 59.4

====

Tested on: RAW264.7
Assay: Anti inflammatory activity in LPS-induced mouse RAW264.7 cells assessed as inhibition of NO production preincubated with compound for 2 hrs followed by LPS stimulation and measured after 24 hrs by griess reagent based assay
Format: functional, cell-based
Record form. Attribute: pIC50. Fill in for each entry.
Give bare numbers, as −log10 of the molar value.

In the examples that follow, each entry is paired with its recorded pIC50.
[
  {
    "molecule": "CC(=O)O[C@H]1C[C@@]2(C)[C@@H](C[C@@H](O)[C@H]3[C@@]4(C)CC[C@@H](OC(=O)c5ccccc5C(=O)N5CCCCC5)[C@@H](C)[C@@H]4CC[C@@]32C)/C1=C(\\CCC=C(C)C)C(=O)OCc1ccccc1",
    "pIC50": 4.94
  },
  {
    "molecule": "CC(=O)O[C@H]1C[C@@]2(C)[C@@H](C[C@@H](O)[C@H]3[C@@]4(C)CC[C@@H](OC(=O)c5ccccc5C(=O)N5CCOCC5)[C@@H](C)[C@@H]4CC[C@@]32C)/C1=C(\\CCC=C(C)C)C(=O)OCc1ccccc1",
    "pIC50": 5.12
  },
  {
    "molecule": "CC(=O)O[C@H]1C[C@@]2(C)[C@@H](C[C@@H](O)[C@H]3[C@@]4(C)CC[C@@H](OC(=O)CCSSCCC(=O)NOC5CCCCO5)[C@@H](C)[C@@H]4CC[C@@]32C)/C1=C(\\CCC=C(C)C)C(=O)OCc1ccccc1 (stereo not given in full)",
    "pIC50": 5.58
  },
  {
    "molecule": "C=CCONC(=O)c1ccccc1C(=O)O[C@@H]1CC[C@@]2(C)[C@@H](CC[C@@]3(C)[C@H]2[C@H](O)C[C@H]2/C(=C(\\CCC=C(C)C)C(=O)OCc4ccccc4)[C@@H](OC(C)=O)C[C@@]23C)[C@@H]1C",
    "pIC50": 5.05
  }
]

// switching to the query molecule
Record CON(C)C(=O)c1ccccc1C(=O)O[C@@H]1CC[C@@]2(C)[C@@H](CC[C@@]3(C)[C@H]2[C@H](O)C[C@H]2/C(=C(\CCC=C(C)C)C(=O)OCc4ccccc4)[C@@H](OC(C)=O)C[C@@]23C)[C@@H]1C , field pIC50: 5.16
